system: DRAK1; construct: gene STK17A; settings: concentration: 1 μM, replicates: in singlicate; n = 1;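 also: KINOMEscan kinase panel screen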
Please provide measured %Inh for the entries that follow.
Give just the numeric value; % need not be written.

Memo: [2H]C([2H])(c1cccc(C(F)(F)F)c1C)n1ccn2c(=O)nc(N3CCOCC3)cc12 , reported %Inh: 0

compound O=C(c1ccc(-c2cc(-c3c[nH]nc3-c3ccccn3)ccn2)cc1)N1CCOCC1 , %Inh observed: 0

Quick note, %Inh for O=c1cc(N2CCOCC2)nc2n(Cc3cccc4ccccc34)ccn12 landed at 0

Note to self: %Inh recorded for O=c1cc(N2CCOCC2)nc2n(Cc3cccc(Cl)c3Cl)c(C3CC3)nn12 was 11

response.value for Fc1ccc(-c2ncn(CCCN3CCOCC3)c2-c2ccccn2)cc1 (field: %Inh) = 0

So, CC(C)Oc1ccc2c(-c3ccnc(Nc4ccc(N5CCN(C)CC5)cc4)n3)cnn2n1 ? Its %Inh was 99.5

Lab note: measured %Inh of COC(=O)Nc1nc2cc(Oc3ccc(NC(=O)Nc4cc(F)ccc4F)cc3)ccc2[nH]1.Cl was 2

// %Inh lookup, compound = O=C(NCCCN1CCOCC1)c1cccc(Nc2nccc(Nc3ccc(Oc4ccccc4)cc3)n2)c1 , result: 10

Record Cl.Nc1ncnc2occ(-c3ccc(NC(=O)Nc4cc(C(F)(F)F)ccc4F)cc3)c12 . Reported %Inh: 0

Lab book: %Inh of Cc1cccc(-c2nc(-c3ccc(S(C)(=O)=O)cc3)sc2-c2ccncc2)c1 noted as 0

Recorded %Inh (compound N#Cc1c(N2CCOCC2)sc(-c2ccn[nH]2)c1-c1ccc(Cl)cc1 ): 0

get_value(item= Cc1cccc(-c2nc(Nc3ccc4ncsc4c3)c3ccccc3n2)n1 , readout=%Inh) returns 0

Measured %Inh of O=C(Nc1n[nH]c2cc(-c3cccc(F)c3)ccc12)C1CC1 : 7

Just so you know, measured %Inh for COc1ccc(CNC(=O)NC2CCN(c3ccnc(Nc4ccc(OC)cc4)n3)C2)cc1 (stereo not drawn) came out at 0

The recorded %Inh for entry CCn1cnc2c(N)ncnc21 equals 6

Documented %Inh of CCCCCc1nc2c(N)ncnc2n1CCCCC : 0

Record CSc1ccc(-c2cc3ncnc(SCC(=O)O)c3s2)cc1 , field %Inh: 37

According to the records, this compound Cc1cccc(Cn2ccn3c(=O)cc(N4CCOCC4)nc23)c1 displays %Inh of 1

Lab note: measured %Inh of Cc1nnc(-c2ccc3occ(-c4ccc(C(C)O)cc4)c3c2)o1 (stereo not drawn) was 19

For record C[C@@H](Oc1cc(-n2cnc3ccc(NC(=O)NC(C)(C)C)cc32)sc1C(N)=O)c1ccccc1Cl the listed %Inh is 0

The compound NS(=O)(=O)c1cccc(-c2ccc3nccc(-c4cccc(S(N)(=O)=O)c4)c3c2)c1 showed %Inh equal to 0

Entry under test: O=C(NCCNc1ccnc(Nc2ccc(F)cc2)n1)c1cc2ccccc2s1 . Its %Inh was 8

# compound COc1cc2c(cc1OCCN1CCN(C)CC1)ncc1c3ccc(C#N)cc3[nH]c21 ; its %Inh = 100

Record Cc1cn2c(=O)cc(N3CCOCC3)nc2n1Cc1cccc(Cl)c1Cl . Reported %Inh: 0
